- run conditions: 288.15 K; 101.33 kPa; Liquid; Concentric cylinders viscometry

{"compound": "CCCCCCCCCC(=O)[O-].CCCCCCCCCCCCCC[P+](CCCCCC)(CCCCCC)CCCCCC [trihexyltetradecylphosphonium decanoate]", "viscosity (mPa·s)": 902.16}
{"compound": "CCCCCCCCCCCCCC[P+](CCCCCC)(CCCCCC)CCCCCC.[Br-] [tetradecyltrihexylphosphonium bromide]", "viscosity (mPa·s)": 6688.3}
{"compound": "CCCCCCCCCCCCCC[P+](CCCCCC)(CCCCCC)CCCCCC.N#C[N-]C#N [tetradecyl(trihexyl)phosphonium dicyanamide]", "viscosity (mPa·s)": 816.36}
{"compound": "CCCCCCCCCCCCCC[P+](CCCCCC)(CCCCCC)CCCCCC.O=S(=O)([N-]S(=O)(=O)C(F)(F)F)C(F)(F)F", "viscosity (mPa·s)": 622.45}
{"compound": "CCCCCCCCCCCCCC[P+](CCCCCC)(CCCCCC)CCCCCC.[Cl-] [trihexyl(tetradecyl)phosphonium chloride]", "viscosity (mPa·s)": 6088.5}
{"compound": "CC(CC(C)(C)C)CP(=O)([O-])CC(C)CC(C)(C)C.CCCCCCCCCCCCCC[P+](CCCCCC)(CCCCCC)CCCCCC", "viscosity (mPa·s)": 2675.3}
{"compound": "CCCCCCCCCCCCCC[P+](CCCCCC)(CCCCCC)CCCCCC.CS(=O)(=O)[O-] [trihexyltetradecylphosphonium methanesulfonate]", "viscosity (mPa·s)": 3040.4}

----------
- run conditions: 313.15 K; 101.33 kPa; Liquid; Vibrating tube method
Some compounds, each annotated with its measured mass density.
quantity name: mass density (kg/m3)

{"compound": "CCCCCCCCCCCCCC[P+](CCCCCC)(CCCCCC)CCCCCC.N#C[N-]C#N [tetradecyl(trihexyl)phosphonium dicyanamide]", "quantity name": "mass density", "numeric readout": 890.4}
{"compound": "CCCCCCCCCCCCCC[P+](CCCCCC)(CCCCCC)CCCCCC.[Br-] [tetradecyltrihexylphosphonium bromide]", "quantity name": "mass density", "numeric readout": 946}
{"compound": "CC(CC(C)(C)C)CP(=O)([O-])CC(C)CC(C)(C)C.CCCCCCCCCCCCCC[P+](CCCCCC)(CCCCCC)CCCCCC", "quantity name": "mass density", "numeric readout": 876.3}

----------
- run conditions: 283.15 K; 101.33 kPa; Liquid; Concentric cylinders viscometry
Mark each entry Condition met if its viscosity sits below 5000 mPa·s, and Condition not met for all others.

{"compound": "CCCCCCCCCCCCCC[P+](CCCCCC)(CCCCCC)CCCCCC.O=S(=O)([N-]S(=O)(=O)C(F)(F)F)C(F)(F)F", "assigned class": "Condition met"}
{"compound": "CCCCCCCCCCCCCC[P+](CCCCCC)(CCCCCC)CCCCCC.CS(=O)(=O)[O-] [trihexyltetradecylphosphonium methanesulfonate]", "assigned class": "Condition met"}
{"compound": "CCCCCCCCCC(=O)[O-].CCCCCCCCCCCCCC[P+](CCCCCC)(CCCCCC)CCCCCC [trihexyltetradecylphosphonium decanoate]", "assigned class": "Condition met"}
{"compound": "CCCCCCCCCCCCCC[P+](CCCCCC)(CCCCCC)CCCCCC.[Br-] [tetradecyltrihexylphosphonium bromide]", "assigned class": "Condition not met"}
{"compound": "CC(CC(C)(C)C)CP(=O)([O-])CC(C)CC(C)(C)C.CCCCCCCCCCCCCC[P+](CCCCCC)(CCCCCC)CCCCCC", "assigned class": "Condition met"}
{"compound": "CCCCCCCCCCCCCC[P+](CCCCCC)(CCCCCC)CCCCCC.[Cl-] [trihexyl(tetradecyl)phosphonium chloride]", "assigned class": "Condition not met"}
{"compound": "CCCCCCCCCCCCCC[P+](CCCCCC)(CCCCCC)CCCCCC.N#C[N-]C#N [tetradecyl(trihexyl)phosphonium dicyanamide]", "assigned class": "Condition met"}

Each recorded value in this set is attributed to the NIST ThermoML archive (doi:10.1016/j.jct.2011.01.016).
